What CC50 was measured for each of the following?
Assay: MT4 cytotoxicity (CC50)
Conditions: human, MT4 cells, MT4 CC50, Table 2a
State the answer as a number, implicitly in nM.

Quick check: CC50 of CCCCCCCCCCCCCCCCCCOC[C@H](COP(=O)(O)OC[C@H]1O[C@@](C#N)(c2ccc3c(N)ncnn23)[C@H](O)[C@@H]1O)OC ?
4000

Now this one: CCCCCCCCCCCCCCCCCCOC[C@H](COP(=O)(O)OC[C@H]1O[C@@](C#N)(c2ccc3c(N)ncnn23)[C@H](O)[C@@H]1O)OC(C)C
7870

Lookup CCCCCCCCCCCCCCCCCOC[C@H](COP(=O)(O)OC[C@H]1O[C@@](C#N)(c2ccc3c(N)ncnn23)[C@H](O)[C@@H]1O)OCc1ccc(C#N)cc1
530

Now try CCCCCCCCCCCCCCCCCOCCCOP(=O)(O)OC[C@H]1O[C@@](C#N)(c2ccc3c(N)ncnn23)[C@H](O)[C@@H]1O .
29900

Please answer likewise for CCCCCCCCCCCCCCCCCOC[C@H](COP(=O)(O)OC[C@H]1O[C@@](C#N)(c2ccc3c(N)ncnn23)[C@H](O)[C@@H]1O)OCc1cc(F)cc(C#N)c1
425

CCCCCCCCCCCCCCCCCCOC[C@H](COP(=O)(O)OC[C@H]1O[C@@](C#N)(c2ccc3c(N)ncnn23)[C@H](O)[C@@H]1O)OCc1cc(F)cc(C(F)(F)F)c1 , same question.
541

Also CCCCCCCCCCCCCCCCCCOC[C@H](COP(=O)(O)OC[C@H]1O[C@@](C#N)(c2ccc3c(N)ncnn23)[C@H](O)[C@@H]1O)OCc1ccc(C#N)c(Cl)c1 , if possible.
723

Lookup CCCCCCCCCCCCCCCCCCOC[C@](C)(COP(=O)(O)OC[C@H]1O[C@@](C#N)(c2ccc3c(N)ncnn23)[C@H](O)[C@@H]1O)OCc1ccccc1
50000

Follow-up entry: CCCCCCCCCCCCCCCCCCOC[C@H](COP(=O)(O)OC[C@H]1O[C@@](C#N)(c2ccc3c(N)ncnn23)[C@H](O)[C@@H]1O)OC(C)c1ccccc1 (single isomer, unassigned)
614

Next: CCCCCCCCCCCCCCCCCCOC[C@H](COP(=O)(O)OC[C@H]1O[C@@](C#N)(c2ccc3c(N)ncnn23)[C@H](O)[C@@H]1O)Oc1cc(F)cc(C#N)c1
195

Further, for CCCCCCCCCCCCCCCCCOC[C@H](COP(=O)(O)OC[C@H]1O[C@@](C#N)(c2ccc3c(N)ncnn23)[C@H](O)[C@@H]1O)OCc1ccc(OC)cc1 ?
1580
